Value source: patent US20250019453A1

# targetOrTestSystem: T1, mIL2Rb ECD antigen (murine, UniProt P16297 27-240)
# T1 construct: The immunogen was the ECD fused to human IgG1 hinge and Fc; also called ECD of IL2Rb (mouse)
# T1 sequence: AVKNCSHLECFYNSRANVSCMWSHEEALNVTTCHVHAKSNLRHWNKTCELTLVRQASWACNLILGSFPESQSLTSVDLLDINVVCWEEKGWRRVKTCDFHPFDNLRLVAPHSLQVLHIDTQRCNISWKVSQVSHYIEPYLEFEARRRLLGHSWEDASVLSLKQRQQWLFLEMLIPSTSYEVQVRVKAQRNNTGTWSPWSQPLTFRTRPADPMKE
# methodDescription: PE-ELISA of phage clones

{"columns": ["binder", "binding result"],
 "data": [
  ["DR1454 (VHH, As a his-tagged phage clone periplasmic extract) VHH: EVQLVESGGGLVQAGGSLRLFCASSERTFGDYPIGWFRQAPGKEREFVASISWGGSRQYYTDSVKGRFTITRDNDKNTVYLQMNSLKPEDTAVYYCWVRVRLSNTALLQRYWGQGTLVTVSS", "binds"],
  ["DR1448 (VHH, As a his-tagged phage clone periplasmic extract) VHH: EVQLVESGGRLVQAGDSLRLSCVASGKSFSDYPLGWFRQAPGKAREYVAHISWSGKLTYYRSTVKGRFTISRDNAENKLYLQMNALKPEDTAVYYCAAMKLFNYGGRYCVLKPLTMYQQWSQGTQVTVSS", "binds"]
]}
